Parameter: pKd. Scope: all listed entries.
- studySystem: T1, AFP158/HLA-A*02:01 complex (human)
- T1 construct: flowed over the chip in SPR; also called AFP158 pro
- protocolDetails: SPR, scFv captured, pMHC in flow;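 also: complex injected at several concentrations over crude scFv, association then running-buffer dissociation, KD estimated from kinetic on- and off-rate constants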
Please express pKd as -log10 of the molar concentration.

binder	measurementName	measurement
HG108V (scFv, AS170036 VL1VH1 scFv mutein) scFv: QSALTQPRSVSGSPGQSVTISCAGTSSDVGSENYVSWYQQHPGKAPKLMIYQVNKRASGVPDRFSGSKSGNTASLTISGLQAEDEADYYCASYRSSDHNIVFGGGTKLTVLGGGGSGGGGSGGGGSEVQLVESGGGLVQPGGSLRLSCAASGFTFSSYAMSWVRQAPGKGLEWVSTINSGTGSPYYADSVKGRFTISRDNSKNTLYLQMNSLRAEDTAVYYCAKNFFDGSWFLVPPAMDYWGQGTLVTVSSHHHHHH	pKd	6.43

// moving on: another record for pKd
## Input Please list pKd recorded for the binder HP110V (scFv, AS170036 VL1VH1 scFv mutein) scFv: QSALTQPRSVSGSPGQSVTISCAGTSSDVGSENYVSWYQQHPGKAPKLMIYQVNKRASGVPDRFSGSKSGNTASLTISGLQAEDEADYYCASYRSSDHNIVFGGGTKLTVLGGGGSGGGGSGGGGSEVQLVESGGGLVQPGGSLRLSCAASGFTFSSYAMSWVRQAPGKGLEWVSTINSGTGSPYYADSVKGRFTISRDNSKNTLYLQMNSLRAEDTAVYYCAKNFFDGSWFLGPVAMDYWGQGTLVTVSSHHHHHH
## Output 6.40
